Below is a list of entries, each paired with its recorded IC50 value.
Biological target: ATP-dependent translocase ABCB1 (Homo sapiens, UniProt P08183)
Sequence (P08183 whole entry): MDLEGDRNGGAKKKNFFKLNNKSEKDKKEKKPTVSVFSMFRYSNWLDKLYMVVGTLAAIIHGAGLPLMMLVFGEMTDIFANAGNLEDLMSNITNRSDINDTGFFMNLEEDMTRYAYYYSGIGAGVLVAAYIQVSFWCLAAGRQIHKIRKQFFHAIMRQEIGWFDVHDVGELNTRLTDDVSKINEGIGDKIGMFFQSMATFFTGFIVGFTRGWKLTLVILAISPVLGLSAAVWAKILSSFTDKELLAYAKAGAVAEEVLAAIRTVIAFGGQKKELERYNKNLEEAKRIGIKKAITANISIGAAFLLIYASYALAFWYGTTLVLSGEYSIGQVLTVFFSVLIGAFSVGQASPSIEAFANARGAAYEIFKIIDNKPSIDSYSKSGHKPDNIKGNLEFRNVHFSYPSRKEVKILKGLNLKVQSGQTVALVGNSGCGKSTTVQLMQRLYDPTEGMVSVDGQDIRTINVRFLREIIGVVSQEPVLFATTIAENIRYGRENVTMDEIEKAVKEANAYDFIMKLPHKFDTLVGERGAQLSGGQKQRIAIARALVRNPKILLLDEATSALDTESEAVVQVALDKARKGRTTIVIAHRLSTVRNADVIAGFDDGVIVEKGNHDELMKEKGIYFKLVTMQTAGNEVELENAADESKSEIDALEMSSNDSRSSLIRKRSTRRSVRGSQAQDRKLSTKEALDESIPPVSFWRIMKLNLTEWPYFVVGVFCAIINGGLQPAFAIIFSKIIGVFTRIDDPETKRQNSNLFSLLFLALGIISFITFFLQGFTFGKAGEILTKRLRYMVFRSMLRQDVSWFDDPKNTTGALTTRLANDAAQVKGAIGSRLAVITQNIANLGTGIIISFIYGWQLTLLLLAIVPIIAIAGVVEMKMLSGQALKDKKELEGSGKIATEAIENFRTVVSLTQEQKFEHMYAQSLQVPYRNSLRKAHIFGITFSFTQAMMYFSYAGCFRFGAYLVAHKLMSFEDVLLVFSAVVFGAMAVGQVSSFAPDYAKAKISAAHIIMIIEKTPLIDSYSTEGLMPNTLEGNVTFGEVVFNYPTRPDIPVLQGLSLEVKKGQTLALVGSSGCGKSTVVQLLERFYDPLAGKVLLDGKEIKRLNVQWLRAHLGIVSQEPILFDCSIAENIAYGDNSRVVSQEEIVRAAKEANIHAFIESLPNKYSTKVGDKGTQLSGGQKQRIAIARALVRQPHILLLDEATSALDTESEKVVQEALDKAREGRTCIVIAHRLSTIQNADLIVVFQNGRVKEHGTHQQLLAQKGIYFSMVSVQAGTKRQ
Assay: Inhibition of P-glycoprotein-mediated multidrug resistance in adriamycin-resistant human A2780/ADR cells by calcein AM assay
Format: cell-based
PROPERTY_NAME: IC50 (nM)

1) COc1cc2c(cc1OC)CN(CCc1ccc(NC(=O)Nc3cccc(N)c3)cc1)CC2    14000
2) COc1cc2c(cc1OC)CN(CCc1ccc(NC(=O)c3ccccc3N)cc1)CC2    8500
3) COc1cc2c(cc1OC)CN(CCc1ccc(NC(=O)COc3ccccc3[N+](=O)[O-])cc1)CC2    220
4) COc1cc2c(cc1OC)CN(CCc1ccc(NC(=O)Nc3cccc([N+](=O)[O-])c3)cc1)CC2    670
5) O=C(Nc1ccc(CCN2CCc3ccccc3C2)cc1)Nc1ccccc1[N+](=O)[O-]    770
6) COc1cc2c(cc1OC)CN(CCc1ccc(NC(=O)c3cnc4ccccc4c3)cc1)CC2    570
7) COc1cc2c(cc1OC)CN(CCc1ccc(NC(=O)c3ccc4ncccc4c3)cc1)CC2    650
8) COc1cc2c(cc1OC)CN(CCc1ccc(NC(=O)COc3ccccc3)cc1)CC2    3100
9) COc1cc2c(cc1OC)CN(CCc1ccc(NC(=O)c3ccc([N+](=O)[O-])cc3)cc1)CC2    1400
10) COc1cc2c(cc1OC)CN(CCc1ccc(NC(=O)COc3ccccc3N)cc1)CC2    3400
11) COc1cc2c(cc1OC)CN(CCc1ccc(NC(=O)c3ccccc3Br)cc1)CC2    3300
12) COc1cc2c(cc1OC)CN(CCc1ccc(NC(=O)c3ccnc4ccccc34)cc1)CC2    4700
13) COc1cc2c(cc1OC)CN(CCc1ccc(NC(=O)/C=C/c3ccc(Cl)cc3)cc1)CC2    670
14) COc1cc2c(cc1OC)CN(CCc1ccc(NC(=O)Nc3ccc([N+](=O)[O-])cc3)cc1)CC2    1500
15) O=C(Nc1ccc(CCN2CCc3ccccc3C2)cc1)c1ccccc1[N+](=O)[O-]    14000

---

Target: ATP-dependent translocase ABCB1 (Homo sapiens, UniProt P08183)
Assay: Inhibition of P-glycoprotein-mediated multidrug resistance in adriamycin-resistant human A2780/ADR cells by calcein AM assay
pIC50: −log10 of the molar value.
Below is a list of entries, each paired with its recorded pIC50 value.
PROPERTY_NAME: pIC50

1) COc1cc2c(cc1OC)CN(CCc1ccc(NC(=O)c3cccnc3)cc1)CC2    5.32
2) COc1cc2c(cc1OC)CN(CCc1ccc(NC(=O)/C=C/c3ccccc3)cc1)CC2    5.85
3) COc1cc2c(cc1OC)CN(CCc1ccc(NC(=O)c3cnc4ccccc4n3)cc1)CC2    6.33
4) COc1cc2c(cc1OC)CN(CCc1ccc(NC(=O)Nc3ccccc3N)cc1)CC2    4.68
5) COc1cc2c(cc1OC)CN(CCc1ccc(NC(=O)c3ccc4ccccc4n3)cc1)CC2    6.07
6) O=C(Nc1ccc(CCN2CCc3ccccc3C2)cc1)c1ccc([N+](=O)[O-])cc1    5.25
7) COc1cc2c(cc1OC)CN(CCc1ccc(NC(=O)Nc3ccc(N)cc3)cc1)CC2    4.51
8) COc1cc2c(cc1OC)CN(CCc1ccc(NC(=O)Nc3ccccc3[N+](=O)[O-])cc1)CC2    6.48
9) COc1cc2c(cc1OC)CN(CCc1ccc(NC(=O)c3ccc4ccccc4c3)cc1)CC2    6.20
10) COc1cc2c(cc1OC)CN(CCc1ccc(NC(=O)c3cc(OC)c(OC)cc3NC(=O)c3cnc4ccccc4c3)cc1)CC2    7.11
11) COc1cc2c(cc1OC)CN(CCc1ccc(NC(=O)c3ccccc3)cc1)CC2    5.39
12) COc1cc2c(cc1OC)CN(CCc1ccc(NC(=O)/C=C/c3ccccc3[N+](=O)[O-])cc1)CC2    5.96
13) Nc1ccc(C(=O)Nc2ccc(CCN3CCc4ccccc4C3)cc2)cc1    4.92
14) COc1cc2c(cc1OC)CN(CCc1ccc(NC(=O)c3ccc4c(c3)OCO4)cc1)CC2    5.68
15) COc1cc2c(cc1OC)CN(CCc1ccc(NC(=O)c3ccccc3[N+](=O)[O-])cc1)CC2    5.27
16) COc1cc(/C=C/C(=O)Nc2ccc(CCN3CCc4cc(OC)c(OC)cc4C3)cc2)c([N+](=O)[O-])cc1OC    5.82
17) COc1cc2c(cc1OC)CN(CCc1ccc(NC(=O)c3cccc(Br)c3)cc1)CC2    5.74
18) COc1cc2c(cc1OC)CN(CCc1ccc(NC(=O)c3ccc(N)cc3)cc1)CC2    5.36
19) Nc1ccccc1NC(=O)Nc1ccc(CCN2CCc3ccccc3C2)cc1    4.72
